Would you kindly list DC50 for each of these compounds?
Molecular target: ER (Homo sapiens (Human), UniProt P03372)
Sequence (P03372 whole entry): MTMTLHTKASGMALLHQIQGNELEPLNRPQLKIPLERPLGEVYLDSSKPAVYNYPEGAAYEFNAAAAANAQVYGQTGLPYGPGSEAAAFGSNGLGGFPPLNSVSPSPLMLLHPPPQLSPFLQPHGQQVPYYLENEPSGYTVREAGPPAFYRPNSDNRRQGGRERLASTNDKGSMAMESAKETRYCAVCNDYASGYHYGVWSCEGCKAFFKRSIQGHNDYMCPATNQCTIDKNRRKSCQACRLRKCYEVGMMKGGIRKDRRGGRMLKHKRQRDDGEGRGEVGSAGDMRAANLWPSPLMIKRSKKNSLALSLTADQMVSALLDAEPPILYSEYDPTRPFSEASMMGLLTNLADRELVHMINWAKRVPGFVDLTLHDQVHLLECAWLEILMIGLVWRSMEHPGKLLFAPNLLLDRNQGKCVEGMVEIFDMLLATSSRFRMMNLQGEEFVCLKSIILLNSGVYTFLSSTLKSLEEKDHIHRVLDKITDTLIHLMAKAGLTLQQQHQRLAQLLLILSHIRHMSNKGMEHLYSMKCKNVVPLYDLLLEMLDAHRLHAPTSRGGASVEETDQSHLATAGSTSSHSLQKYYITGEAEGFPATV
Assay: In-cell western blot analysis of ER for "B" compounds
Type: cell-based
Settings: 16 hours, read-out: ICW DC50

Enquiry: # return recorded DC50 for input O=C1CCC(N2Cc3c(ccc4c3OCCC43CCN(CC4CCN(c5ccc([C@@H]6c7ccc(O)cc7CC[C@@H]6c6ccccc6)cc5)CC4)CC3)C2=O)C(=O)N1 (stereo partly shown)
Return: > 100 nM

Enquiry: # return recorded DC50 for input O=C1CCC(N2Cc3cc4c(cc3C2=O)OC[C@@H]2CN(C(=O)CN3CC5(CCN(c6ccc([C@@H]7c8ccc(O)cc8CC[C@@H]7c7ccccc7)cc6)CC5)C3)CCN42)C(=O)N1 (stereo partly shown)
Return: < 10 nM

Enquiry: # return recorded DC50 for input O=C1CCC(N2Cc3cc4c(cc3C2=O)OC[C@@H]2CN(CC3CC5(CCN(c6ccc([C@@H]7c8ccc(O)cc8CC[C@@H]7c7ccccc7)cc6)C5)C3)CCN42)C(=O)N1 (stereo partly shown)
Return: > 100 nM

Enquiry: # return recorded DC50 for input O=C1CC[C@H](N2Cc3cc4c(cc3C2=O)OC[C@@H]2CN(CC3COC5(CCN(c6ccc([C@@H]7c8ccc(O)cc8CC[C@@H]7c7ccccc7)cc6)CC5)C3)CCN42)C(=O)N1 (stereo partly shown)
Return: < 10 nM

The measurements presented in this section are drawn from patent US20260028354A1.
